Origin of the recorded values: patent US5622983A

assayed-target: Central CCK Receptors (Mus musculus)
Sequence (P56481 whole entry): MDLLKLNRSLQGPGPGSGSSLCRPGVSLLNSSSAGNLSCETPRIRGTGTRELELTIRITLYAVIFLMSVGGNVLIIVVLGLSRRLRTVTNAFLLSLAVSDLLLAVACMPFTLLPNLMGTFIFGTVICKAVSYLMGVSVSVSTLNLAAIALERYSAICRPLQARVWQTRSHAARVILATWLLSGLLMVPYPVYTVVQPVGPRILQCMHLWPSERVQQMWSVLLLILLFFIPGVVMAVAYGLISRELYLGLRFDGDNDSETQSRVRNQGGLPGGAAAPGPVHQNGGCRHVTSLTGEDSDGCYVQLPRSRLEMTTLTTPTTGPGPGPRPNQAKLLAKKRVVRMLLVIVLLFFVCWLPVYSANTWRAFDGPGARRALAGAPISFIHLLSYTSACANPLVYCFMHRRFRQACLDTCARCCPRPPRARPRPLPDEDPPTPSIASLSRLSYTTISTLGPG
protocol: Binding to central CCK receptors (tritiated-pentagastrin displacement, cerebral cortical membranes)
run-parameters: read-out: Binding to Central CCK Receptors Ki; displacement of 2 nM tritiated-pentagastrin, mouse cerebral cortical membranes
Readings of Ki for the listed compounds
attribute-measured: Ki (nM)

[
  {
    "compound": "CC(Cc1c[nH]c2ccccc12)(NC(=O)OC1C2CC3CC(C2)CC1C3)C(=O)NCC(NC(=O)C1CC1C(=O)O)c1ccccc1 (racemic)",
    "assayed-target": "Central CCK Receptors (Mus musculus)",
    "quantitative-result": 5.1
  },
  {
    "compound": "CC(Cc1c[nH]c2ccccc12)(NC(=O)OC1CCCCC1Cl)C(=O)NC(COC(=O)CCC(=O)O)Cc1ccccc1 (stereo not shown)",
    "assayed-target": "Central CCK Receptors (Mus musculus)",
    "quantitative-result": 170
  },
  {
    "compound": "CC(Cc1c[nH]c2ccccc12)(NC(=O)OC1C2CC3CC(C2)CC1C3)C(=O)NC(COC(=O)CCC(=O)O)Cc1ccccc1 (stereo not shown)",
    "assayed-target": "Central CCK Receptors (Mus musculus)",
    "quantitative-result": 30
  },
  {
    "compound": "CC(Cc1c[nH]c2ccccc12)(NC(=O)OC1CC2CCC1(C)C2(C)C)C(=O)NCCc1ccccc1 (racemic) [Example 7]",
    "assayed-target": "Central CCK Receptors (Mus musculus)",
    "quantitative-result": 760
  },
  {
    "compound": "CC(Cc1c[nH]c2ccccc12)(NC(=O)OC12CC3CC(CC(C3)C1)C2)C(=O)NCCc1ccccc1 (racemic)",
    "assayed-target": "Central CCK Receptors (Mus musculus)",
    "quantitative-result": 1230
  },
  {
    "compound": "CC(Cc1c[nH]c2ccccc12)(NS(=O)(=O)CC12CCC(CC1=O)C2(C)C)C(=O)NC(CO)Cc1ccccc1 (stereo not shown)",
    "assayed-target": "Central CCK Receptors (Mus musculus)",
    "quantitative-result": 21000
  },
  {
    "compound": "CC(Cc1c[nH]c2ccccc12)(NC(=O)O[C@@H]1CCCC[C@H]1Cl)C(=O)NC(CO)Cc1ccccc1 (mixture of isomers) [Example 3]",
    "assayed-target": "Central CCK Receptors (Mus musculus)",
    "quantitative-result": 260
  },
  {
    "compound": "CC1CCCCC1OC(=O)NC(C)(Cc1c[nH]c2ccccc12)C(=O)NCC(NC(=O)C=CC(=O)O)c1ccccc1 (single isomer, unassigned)",
    "assayed-target": "Central CCK Receptors (Mus musculus)",
    "quantitative-result": 0.29
  },
  {
    "compound": "CC(Cc1c[nH]c2ccccc12)(NC(=O)OC1C2CC3CC(C2)CC1C3)C(=O)NCC(OC(=O)CCC(=O)O)c1ccccc1 (stereo not shown)",
    "assayed-target": "Central CCK Receptors (Mus musculus)",
    "quantitative-result": 63
  },
  {
    "compound": "C[C@](Cc1c[nH]c2ccccc12)(NC(=O)CC12CC3CC(CC(C3)C1)C2)C(=O)N[C@H](CO)Cc1ccccc1 (relative stereo)",
    "assayed-target": "Central CCK Receptors (Mus musculus)",
    "quantitative-result": 2230
  },
  {
    "compound": "CC(Cc1c[nH]c2ccccc12)(NC(=O)OC1CC2CC3CC(C2)C1C3)C(=O)NC(COC(=O)CCC(=O)O)Cc1ccccc1 (stereo not shown)",
    "assayed-target": "Central CCK Receptors (Mus musculus)",
    "quantitative-result": 85
  },
  {
    "compound": "CC(Cc1c[nH]c2ccccc12)(NC(=O)OC1C2CC3CC(C2)CC1C3)C(=O)NC(CO)Cc1ccccc1 (stereo not shown)",
    "assayed-target": "Central CCK Receptors (Mus musculus)",
    "quantitative-result": 26
  },
  {
    "compound": "CC1CCCCC1OC(=O)NC(C)(Cc1c[nH]c2ccccc12)C(=O)NC(CNC(=O)C=CC(=O)O)Cc1ccccc1 (single isomer, unassigned)",
    "assayed-target": "Central CCK Receptors (Mus musculus)",
    "quantitative-result": 4
  }
]
